Test: NCI Yeast Anticancer Drug Screen. Data for the mlh1 rad18 strain (AID 175)
Details: S. cerevisiae mlh1 rad18 strain growth inhibition; at 50.0 µM
Experimental: Growth inhibition of yeast strains with defined genetic alterations is measured as a screen for potential anti-cancer activity. Selected strains with alterations in DNA damage repair or cell cycle control were exposed to compounds and growth inhibition was measured relative to vehicle treated controls. The strain used in this assay is mlh1 rad18
This is part of a sample that, as a whole, favours compounds with a hit. Of some 79,000 tested, about 15% had one in any assay. Active and inactive are the calls of the source. Rule as the data show it: active = growth inhibition above about 70%; inactive = the rest.
Possible outcomes: T (active), F (inactive)

molecule | class
Cc1c[nH]c2nc(C)n(-c3ccccc3F)c(=N)c12 | F
CCCCCCCCn1nnnc1C(F)(F)F | F
CC1(C)CO/C(=C/C(=O)c2ccccc2)N1C(=O)c1ccccc1 | F
Cc1ccc(N2CCN(CCC(=O)O)CC2)cc1 | F
NCc1ccc(C(=O)O)cc1 | F
Oc1cc(-c2ccc(Cl)cc2)cn2c1nc1ccccc12 | F
O=C(Nc1ccc(N=C=S)cc1Cl)c1ccc2ccccc2c1O | F
COC(=O)CC1C2(C)C3=C(C)C(c4ccoc4)CC3OC2C2OC(=O)C3(C)C=CC(=O)C1(C)C23 (stereo not given) | T
Cc1nnc2n1N=C(c1ccc(-c3ccc([N+](=O)[O-])cc3)o1)CS2 | F
O=S1(=O)C2C=CC1CCCC2 | F
